Cited source for all entries: PubChem BioAssay AID1986

assay: inhibitors of HIV fusion peptide binding, primary screen, biochemical, uHTS, fluorescence dequenching (AID 1986); settings: cell-free peptide binding, 30 min, at 20 µM, active compounds read high
In all, about 290,000 compounds went through this assay and about 890 (0.31%) were called active. For the sample, actives were picked, then their nearest neighbours and some compounds at random.
experimental_readout: inhibition (%)

INSERT INTO measurements (compound, numeric_readout) VALUES
  ('COc1cc(NC(=O)c2cnn3c(C(F)F)cc(C4CC4)nc23)c(OC)cc1Cl', -0.3),
  ('Cc1cccc(NC(=O)CC2Nc3cccc4cccc(c34)NC2=O)c1 (stereo not given)', -5.8),
  ('CC(=O)Nc1ccc(NC(=O)CC2Nc3cccc4cccc(c34)NC2=O)cc1 (stereo not given)', 67.6),
  ('CC(C)(C)OC(=O)N1CCC(c2cc(=O)n3[nH]c(-c4ccc(Cl)cc4)cc3n2)CC1', -1.3),
  ('NC(=O)CC1Nc2cccc3cccc(c23)NC1=O (stereo not given)', 57.4);

---

Reported inhibition by item:
experiment: inhibitors of HIV fusion peptide binding, primary screen, biochemical, uHTS, fluorescence dequenching (AID 1986); settings: cell-free peptide binding, 30 min, at 20 µM, active compounds read high
In all, about 290,000 compounds went through this assay and about 890 (0.31%) were called active. Only a selection was taken, and actives are over-represented in it overall.
experimental_readout: inhibition (%)

INSERT INTO results (molecule, experimental_readout, quantity_unit, numeric_readout) VALUES
  ('CN1CC2([N+](=O)[O-])CC=C(OCCO)C([N+](=O)[O-])(C1)C2 (stereo not given)', 'inhibition', '%', 0.4),
  ('Cc1ccc(C)c(NC(=O)c2ccccc2NS(=O)(=O)c2cc([N+](=O)[O-])ccc2C)c1', 'inhibition', '%', 47.1),
  ('CC(=O)Nc1ccc(NS(=O)(=O)c2cc([N+](=O)[O-])ccc2C)cc1', 'inhibition', '%', 0.5),
  ('COC(=O)c1cccc(Cn2nnc3ccccc3c2=O)c1', 'inhibition', '%', 0.9),
  ('COc1ccccc1OCC(=O)Nc1ccc(S(=O)(=O)Nc2onc(C)c2C)cc1', 'inhibition', '%', -0.4),
  ('COc1ccc(/C=N\NC(=O)c2ccccc2Br)cc1COc1c(F)c(F)cc(F)c1F', 'inhibition', '%', 0.6),
  ('O=c1c2[nH]c3cccc(Cl)c3c2ncn1Cc1ccncc1', 'inhibition', '%', 0.2),
  ('CCc1c(-c2ccccc2)nc2sc3c(c2c1N)CCCC3', 'inhibition', '%', 0.7),
  ('CC(C)Cc1nc(S(=O)(=O)c2ccc(Cl)cc2)c(N2CCOCC2)o1', 'inhibition', '%', 1.2),
  ('O=C(N/N=C/c1ccc([N+](=O)[O-])o1)c1cn(-c2ccccc2)nc1-c1ccccc1', 'inhibition', '%', 65.8);

---

experiment: inhibitors of HIV fusion peptide binding, primary screen, biochemical, uHTS, fluorescence dequenching (AID 1986); conditions: cell-free peptide binding, 30 min, at 20 µM, active compounds read high
In all, about 290,000 compounds went through this assay and about 890 (0.31%) were called active. The list comes from a sample in which actives are over-represented; it also holds close analogues and randomly drawn compounds.
Item-by-item account of inhibition
experimental_readout: inhibition

INSERT INTO measurements (molecule, result) VALUES
  ('COc1cccc(/C=C2\SC(=S)N(C(Cc3ccccc3)C(=O)O)C2=O)c1 (stereo not given)', '30.7% (inactive)'),
  ('CC[n+]1c(/C=C/c2c[nH]c3ccccc23)ccc2cc(C)ccc21', '142% (inactive)'),
  ('COc1ccc2c(/C=C/c3cc[n+](C)cc3)c[nH]c2c1', '6.5% (inactive)'),
  ('CCOc1cc(/C=C2\SC(=Nc3ccccc3)N(c3ccccc3)C2=O)ccc1OCC(=O)O', '58.9% (active)'),
  ('O=C(O)C(Cc1ccccc1)N1C(=O)/C(=C/c2cccc3ccccc23)SC1=S (stereo not given)', '52.6% (active)');
